This collection of values is drawn from patent US20220348651A1.

# % inhibition, Human ENTPD2 NIH/3T3 Assay per entry
- tested-target: T1, human ENTPD2 expressed on cells (human, UniProt Q9Y5L3 1-495)
- T1 sequence: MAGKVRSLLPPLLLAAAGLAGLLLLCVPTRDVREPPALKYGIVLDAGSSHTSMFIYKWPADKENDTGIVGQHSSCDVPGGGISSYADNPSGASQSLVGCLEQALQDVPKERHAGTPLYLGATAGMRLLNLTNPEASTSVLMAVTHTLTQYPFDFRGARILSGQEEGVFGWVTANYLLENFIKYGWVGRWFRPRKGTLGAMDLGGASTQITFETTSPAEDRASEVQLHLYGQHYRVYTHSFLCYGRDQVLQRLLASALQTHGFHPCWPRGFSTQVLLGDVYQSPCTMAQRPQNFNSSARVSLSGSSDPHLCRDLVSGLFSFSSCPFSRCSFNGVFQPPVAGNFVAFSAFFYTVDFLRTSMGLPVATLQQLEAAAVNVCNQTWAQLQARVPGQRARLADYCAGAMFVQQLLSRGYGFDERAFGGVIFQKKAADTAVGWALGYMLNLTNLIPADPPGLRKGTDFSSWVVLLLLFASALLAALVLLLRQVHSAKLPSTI
- measurement-description: cell-based or functional assay

{"binder": "ANTI-HUMAN ENTPD2 MAB18 (antibody, human IgG1, kappa, V domains shown) VH: DIQLQESGPGLVKPSQSLSLTCSVTGYSITSGYYWNWIRQFPGNKLEWMGYISYDGDNNYNPSLKNRISITRDTSKNQFFLKLSSVTTEDTATYYCAGGYYRYGLGSYSGSYYYVMDYWGQGTSVTVSS VL: DTVLTQSPASLAVSLGQRATISCKASQSVDYDGNSYMNWYQQKPGQPPKLLIYAASNLESGIPARFSGSGSGTDFTLNIHPVEEEDAATYYCQQSNEDPPTFGGGTKLEIKR", "% inhibition, Human ENTPD2 NIH/3T3 Assay / %": 88}
{"binder": "ANTI-HUMAN ENTPD2 MAB5 (antibody, human IgG1, kappa, V domains shown, humanized and optimized from mAb16; human IgG1, kappa; also called Anti-ENTPD2 mAb5) VH: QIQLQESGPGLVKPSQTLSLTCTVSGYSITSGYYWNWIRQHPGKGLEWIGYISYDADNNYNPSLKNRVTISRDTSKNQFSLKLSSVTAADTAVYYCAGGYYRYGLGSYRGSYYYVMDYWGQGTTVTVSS VL: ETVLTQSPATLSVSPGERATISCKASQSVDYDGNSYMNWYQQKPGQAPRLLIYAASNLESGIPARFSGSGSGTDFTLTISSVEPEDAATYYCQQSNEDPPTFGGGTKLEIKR", "% inhibition, Human ENTPD2 NIH/3T3 Assay / %": 95}
{"binder": "ANTI-HUMAN ENTPD2 MAB9 (antibody, human IgG1, lambda, V domains shown, also called Anti-ENTPD2 mAb9) VH: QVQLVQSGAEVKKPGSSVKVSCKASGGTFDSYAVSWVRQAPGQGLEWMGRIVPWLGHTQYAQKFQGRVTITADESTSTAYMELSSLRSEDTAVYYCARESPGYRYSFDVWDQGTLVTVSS VL: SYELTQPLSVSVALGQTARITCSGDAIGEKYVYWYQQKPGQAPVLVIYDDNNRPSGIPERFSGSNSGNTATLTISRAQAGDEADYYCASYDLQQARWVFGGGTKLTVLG", "% inhibition, Human ENTPD2 NIH/3T3 Assay / %": 92}
{"binder": "ANTI-HUMAN ENTPD2 MAB8 (antibody, human IgG1, lambda, V domains shown, also called Anti-ENTPD2 mAb8) VH: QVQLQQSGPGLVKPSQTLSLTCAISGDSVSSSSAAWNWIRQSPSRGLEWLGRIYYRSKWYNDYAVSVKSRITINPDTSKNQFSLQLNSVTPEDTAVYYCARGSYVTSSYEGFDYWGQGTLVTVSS VL: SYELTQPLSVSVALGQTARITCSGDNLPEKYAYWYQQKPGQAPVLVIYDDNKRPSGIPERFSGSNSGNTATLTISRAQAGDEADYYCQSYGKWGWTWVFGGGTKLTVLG", "% inhibition, Human ENTPD2 NIH/3T3 Assay / %": 97}
